Tested on: MDA-MB-231 breast
ASSAY_COMMENT: NCI-60 one-dose screen, 48 h (100 = growth as untreated, 0 = no growth, -100 = all killed)
PARTICULARS: 10 µM unless noted
This is part of a sample that, as a whole, favours compounds with a hit. Of some 83,000 tested, about 20% had one in any assay.
Ranges used to classify growth: 1 (below 20%), 2 (20% to below 90%), 3 (90% or more)

Answered examples (2):
CCN(CC)CCCNc1cc(OC)c(OC)c2cccnc12 :: 2
CN(C)c1ccc(/C=N\NC(=O)c2ccc3nc(-c4ccc(Cl)cc4)[nH]c3c2)cc1 :: 2

Into which category would you place "C(=C(\C1=NCCN1)n1ccc2ccccc21)/c1ccccc1" ?
3

Same question for "C=C1C(=O)O[C@H]2[C@H]1CC/C(COC(=O)C(=O)c1c[nH]c3ccc(Cl)cc13)=C\CC[C@@]1(C)O[C@@H]21" please.
1

Same question for "Fc1cc2[nH]ncc2c2c3c(c(-c4cn[nH]c4C(F)(F)F)nc12)CCCC3" please.
1

Same question for CCn1cc(C(=O)N/N=C/c2ccccc2)c(=O)c2cc(F)c(N3CCNC(C)C3)c(F)c21 (stereo not drawn) please.
1

Same question for "Oc1c(CN2CCC(N3CCOCC3)CC2)cc(Cc2cc(CN3CCC(N4CCOCC4)CC3)c(O)c3ncccc23)c2cccnc12" please.
1

Same question for "COc1ccc(C/C(C)=C(\c2ccc(Cl)cc2)c2ccc(OCCCN(C)C)cc2)cc1" please.
2

Same question for "CNCCCNc1nc2ccccc2c2c(=O)c3cc(Cl)ccc3sc12" please.
1

Same question for COC1C(O)CC(OC2CC(OC3CC(O[C@@H]4C(=O)c5c(cc6cc(OC7CC(OC8CC(O)C(O)C(C)O8)C(O)C(C)O7)c(C)c(O)c6c5O)CC4[C@H](OC)C(=O)C(C)=O)OC(C)C3O)OC(C)C2O)OC1C (stereo partly drawn) please.
1

Same question for "CSc1nc(-c2ccco2)c(C#N)c(=O)n1C" please.
3

---

We begin with a simple list: items and their reported growth.
Test system: SNB-19 CNS
ASSAY_COMMENT: NCI-60 one-dose screen, 48 h (100 = growth as untreated, 0 = no growth, -100 = all killed)
PARTICULARS: 10 µM unless noted
This is part of a sample that, as a whole, favours compounds with a hit. Of some 83,000 tested, about 20% had one in any assay.
Number in %, nothing else.

In the examples that follow, each entry is paired with its recorded growth.
C=CC(=O)Nc1cccc(Oc2nccc(Nc3nnc(-c4ccc(Br)cc4)s3)n2)c1 :: 97
CS(=O)/C(C#N)=C\C=C\c1cccc(Cl)c1 (configuration not stated) :: 27.2
COc1ccc(/C=C(/C(=O)N2CCNCC2)c2cc(OC)c(OC)c(OC)c2)cc1O :: 38.4
c1ccc(-c2c(-c3ccccc3)[n+](Cc3ccc4ccccc4c3)cn2Cc2ccc3ccccc3c2)cc1 :: -66.4
COCCn1cc(-c2nc(-c3cn(CCOC)c4ncccc34)cs2)c2cc(F)ccc21 :: 90.4
Oc1c(CN2CCC(N3CCOCC3)CC2)cc(Cc2cc(CN3CCC(N4CCOCC4)CC3)c(O)c3ncccc23)c2cccnc12 :: 29.3

Consider the molecule "COC(=O)c1ccc2cc(OC)c(OC)cc2c1" and give its measured growth.
99.5

Same question for "CC1(C)CC[C@]2(CO)CC[C@]3(C)[C@](O)([C@H](O)C[C@@H]4[C@@]5(C)CCCNC(C)(C)[C@@H]5CC[C@]43C)[C@@H]2C1" please.
103

Same question for "Cc1c(C(C)(C)O)cn2ncnc(Oc3ccc(NC(=O)Nc4ccc(Cl)c(C(F)(F)F)c4)c(F)c3)c12" please.
53.2

Same question for O=C(NN1C(=O)CSC1c1cccc([N+](=O)[O-])c1)c1ccc(NC(=O)c2ccccn2)cc1 (configuration not stated) please.
97.8

Same question for "Cc1ccc2c(c1)sc1nc(-c3c[nH]c4ccccc34)c(Nc3ccccc3)n12" please.
94.9

Same question for COc1ccc(C2CC(c3ccccc3)=NN2C(=O)c2cc(OC)c(OC)c(OC)c2)cc1O (configuration not stated) please.
47.3

Value source: PubChem BioAssay (NCI)
